# TARGET_ENTITY: CD137 (UniProt Q07011 24-255, limits assumed)
# Sequence (Q07011 24-255 limits assumed): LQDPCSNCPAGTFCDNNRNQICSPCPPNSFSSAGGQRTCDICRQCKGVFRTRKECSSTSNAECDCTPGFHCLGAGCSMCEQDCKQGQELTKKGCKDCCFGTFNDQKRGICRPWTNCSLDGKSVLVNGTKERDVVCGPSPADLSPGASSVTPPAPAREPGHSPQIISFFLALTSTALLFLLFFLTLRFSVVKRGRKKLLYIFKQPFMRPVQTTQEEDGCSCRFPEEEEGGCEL
# RUN_DESCRIPTION: cell-based or functional assay
*1 amine or outer side, *2 acyl side, *3 side chain or, on linkers, in order; H or OH if unused. Bridges are numbered along the chain shown (N, C = ends). Roman numbers before positions name the chains, in order. Where no end group is shown, it is not given here. [ ]: non-standard residue; d: D form. The star is where a group is joined. TATA = O=C(CC[*:1])N1CN(C(=O)CC[*:2])CN(C(=O)CC[*:3])C1; 1Nal = N[C@@H](Cc1cccc2ccccc12)C(=O)O; Hyp = O=C(O)[C@@H]1C[C@@H](O)CN1; hArg = N=C(N)NCCCC[C@H](N)C(=O)O; tBuAla = CC(C)(C)C[C@H](N)C(=O)O; Nle = CCCC[C@H](N)C(=O)O; Pent4ynoyl = C#CCCC(=O)*
Respond with 1.0 for Fold improvement in EC50 over BCY10000 on same plate values of 0.9 fold and above, 0.0 for values below.

Recorded results for 3 binders are shown here.
BINDER: BCY12585 (linker I:1-I:5-I:15, II:1-II:8-II:15 via TATA; not fully specified (bridges); printed as CP[1Nal][dE]CM[HArg]EWSTP[HyP]WC / Ac-C[tBuAla]PE[D-Lys(PYA)]PYCFADPY[Nle]CA; also: chain 1 N-terminus joined to chain 2 dLys(PYA) by Peg5 linker (heterotandem complex)) peptide 1: CP[1Nal][dE]CM[hArg]EWSTP[Hyp]WC peptide 2: Ac-C[tBuAla]PE[dK](Pent4ynoyl)PYCFADPY[Nle]CA
CLASS_NAME: 1.0

BINDER: BCY12579 (Ac-C[tBuAla]PE[D-Lys(PYA)]PYCFADPY[Nle]CA; Cys residues bonded to TATA scaffold; [Ac]CP[1Nal][dK]CM[HArg]HWSTP[HyP]WC; Cys residues bonded to TATA scaffold) peptide 1: CPXKCMXHWSTPXWC peptide 2: CXPEXPYCFADPYXCA
CLASS_NAME: 0.0

BINDER: BCY12020 ([Ac]C[tBuAla]PE[dK]PYCFADPY[Nle]C[Dap(PYA)]; carries Palmitic acid-PEG10 (Example 7); Cys residues bonded to TATA scaffold; [PYA][B-Ala]CP[1Nal][dD]CM[HArg]DWSTP[HyP]WC; Cys residues bonded to TATA scaffold) peptide 1: XCPXDCMXDWSTPXWC peptide 2: CXPEKPYCFADPYXCX
CLASS_NAME: 0.0

Query binder follows.
Query :: Decide: Fold improvement in EC50 over BCY10000 on same plate of BCY11616 (Ac-ACIEE(D-K)(PYA)QYCFADPY(Nle)CA; Cys residues bonded to TATA scaffold; CP[1Nal][dD]CM[HArg]DWSTP[HyP]WC; Cys residues bonded to TATA scaffold) peptide 1: CPXDCMXDWSTPXWC peptide 2: ACIEEKQYCFADPYXCA >= 0.9 fold?
Result :: 0.0
